The measurements presented in this section are drawn from PubChem BioAssay (NCI).

- PROTOCOL_DETAILS: NCI Yeast Anticancer Drug Screen. Data for the cln2 rad14 strain (AID 165)
- CONDITION_PARAMETERS: S. cerevisiae cln2 rad14 strain, at 50.0 µM
The panel holds about 79,000 compounds, 15% with a hit somewhere; the sample as a whole holds those more often. Activity calls are given as the source filed them. Rule as the data show it: active = growth inhibition above about 70%; inactive = the rest.
Answer with one of the outcomes given here: active, inactive

COMPOUND	LABEL_VALUE
CCCN(CCC)CC(O)c1ccc2ccc3ccc(Cl)cc3c2c1 (centres undefined)	active
CCOc1cc2c(OCc3ccccc3)cc3c4cc(OC)c(OC)cc4c[n+](C)c3c2cc1OC	inactive
CCCCCCCCCCCCNC(=O)C[n+]1cccc(C(=O)Nc2ccccc2)c1	active
CS/C(=N\C(=S)N(C)C)N(c1ccccc1)c1nc(=[N+](C)C)ss1	active

Lookup: Short answer needed: outcome of this test for Cc1ccc(C)c(C(=O)CCN)c1 ?
Found: active

Lookup: Assay result, entry CN(C)c1ccc(/C=C/c2ccnc3ccccc23)c(O)c1 — outcome?
Found: inactive

Lookup: Just curious, what result did CCOC(=O)/C=C(\CC(=O)OCC)C(=O)OCC get here?
Found: inactive

Lookup: How did this test come out for O=C1C=CC(=Nc2ccc(O)c3ncccc23)c2cccnc21 ?
Found: active

Lookup: What classification did OCCc1ccc(-n2cnc3c(Nc4ccc(Cl)cc4)ncnc32)cc1 end up with in this test?
Found: inactive

Lookup: Please share the test call associated with CC1=NOC(=O)C1N=Nc1ccc(Br)cc1C (centres undefined) .
Found: active

Lookup: Look up the recorded call for COc1ccc(/C(Cl)=C(\c2ccc(OCCN(C)C)cc2)c2ccc(OC(=O)C(C)(C)C)cc2)cc1 in this test.
Found: inactive

Lookup: Recorded call for CC(C)C1=CC23CCC4C(C)(C(=O)O)CCCC4(C)C2CC1c1c(O)ccc(O)c13 (centres undefined) ?
Found: active

Lookup: Outcome logged for O=P(OCCCl)(OCCCl)C(Nc1cccc2ccccc12)c1ccccc1 (centres undefined) in this assay:
Found: active

Lookup: Check the results log: what was the call for Cc1ccc(NN)cc1 ?
Found: inactive

Lookup: I'd appreciate the recorded outcome for CC1=C(C(=O)OC(C)C)C(c2ccccc2[N+](=O)[O-])C(C(=O)OC(CO[N+](=O)[O-])CO[N+](=O)[O-])=C(C)N1 (centres undefined) from this test.
Found: active

Lookup: Short answer needed: outcome of this test for CC(=O)O/N=C1/CCC2C3CC=C4CC(OC(C)=O)CCC4(C)C3CCC12C (centres undefined) ?
Found: active

Lookup: Would you mind telling me which call this test gave CCCCCCCCCCCCCCCCCC(=O)OC(C)CCC1CCCO1 (centres undefined) ?
Found: inactive
